Values were extracted from patent US9167821B2.

- Procedure Summary: physchem
- Condition Description: pH 2.3

{"columns": ["Molecule", "chromatographic logP"],
 "data": [
  ["O=C(Cn1nc(C(F)F)cc1C(F)F)N1CCC(c2nc(C3=NOC(c4ccccc4OCC4CCCCC4)C3)cs2)CC1 (stereo not shown) [I-24]", 4.9],
  ["Nc1ccccc1C1CC(c2csc(C3CCN(C(=O)Cn4nc(C(F)F)cc4C(F)F)CC3)n2)=NO1 (stereo not shown) [I-41]", 2.7],
  ["O=C(Cn1nc(C(F)F)cc1C(F)F)N1CCC(c2nc(C3=NOC(c4ccccc4O)C3)cs2)CC1 (stereo not shown) [I-9]", 2.58],
  ["O=C(Oc1ccccc1C1CC(c2csc(C3CCN(C(=O)Cn4nc(C(F)F)cc4C(F)F)CC3)n2)=NO1)C1CCCCC1 (stereo not shown) [I-32]", 4.27]
]}

###

- Procedure Summary: physchem
- Condition Description: pH 2.7, log P (pH2.7)

{"columns": ["Compound", "chromatographic logP"],
 "data": [
  ["c1ccc(C2CC(c3csc(C4CCNCC4)n3)=NO2)c(OCC2CCCCC2)c1 (stereo not drawn)", 1.9],
  ["O=[N+]([O-])c1ccccc1C1CC(c2csc(C3CCNCC3)n2)=NO1 (stereo not drawn)", 1.09],
  ["CC(C)(C)OC(=O)N1CCC(c2nc(C3=NOC(c4ccccc4[N+](=O)[O-])C3)cs2)CC1 (stereo not drawn)", 4.01],
  ["CC(C)(C)OC(=O)N1CCC(c2nc(C3=NOC(c4ccccc4O)C3)cs2)CC1 (stereo not drawn)", 3.22],
  ["Oc1ccccc1C1CC(c2csc(C3CCNCC3)n2)=NO1 (stereo not drawn)", 0.69],
  ["CC(C)(C)OC(=O)N1CCC(c2nc(C3=NOC(c4ccccc4OCC4CCCCC4)C3)cs2)CC1 (stereo not drawn)", 6.3]
]}

###

- Procedure Summary: physchem
- Condition Description: pH 2.7, logp [b]
Assay Endpoint: chromatographic logP

{"columns": ["Molecule", "Recorded Result"],
 "data": [
  ["COC(=O)c1ccccc1C1CC(c2csc(C3CCN(C(=O)Cn4nc(C(F)F)cc4C(F)F)CC3)n2)=NO1 (stereo not drawn) [I-43]", 3.32],
  ["C#CCOc1cccc(Cl)c1C1CC(c2csc(C3CCN(C(=O)Cn4nc(C(F)F)cc4C(F)F)CC3)n2)=NO1 (stereo not drawn) [I-49]", 3.5],
  ["C=CCOc1cccc(Cl)c1C1CC(c2csc(C3CCN(C(=O)Cn4nc(C(F)F)cc4C(F)F)CC3)n2)=NO1 (stereo not drawn) [I-51]", 3.82],
  ["COCCOCc1ccccc1C1CC(c2csc(C3CCN(C(=O)Cn4nc(C(F)F)cc4C(F)F)CC3)n2)=NO1 (stereo not drawn) [I-11]", 3.21],
  ["O=C(Cn1nc(C(F)F)cc1C(F)F)N1CCC(c2nc(C3=NOC(c4c(O)cccc4Cl)C3)cs2)CC1 (stereo not drawn) [I-54]", 2.94],
  ["O=C(Cn1nc(C(F)F)cc1C(F)F)N1CCC(F)(c2nc(C3=NOC(c4ccccc4)C3)cs2)CC1 (stereo not drawn) [I-5]", 3.41],
  ["O=C(Cn1nc(C(F)F)cc1C(F)F)N1CCC(c2nc(C3=NOC(c4ccccc4CO)C3)cs2)CC1 (stereo not drawn) [I-45]", 2.45],
  ["O=C(Cn1nc(C(F)F)cc1C(F)F)N1CCC(c2nc(C3=NOC(c4ccccc4CCl)C3)cs2)CC1 (stereo not drawn) [I-44]", 3.36],
  ["C=C(C)COc1ccccc1C1CC(c2csc(C3CCN(C(=O)Cn4nc(C(F)F)cc4C(F)F)CC3)n2)=NO1 (stereo not drawn) [I-18]", 3.96],
  ["COC(=O)c1ccccc1C1CC(c2nc(C3CCN(C(=O)Cn4nc(C(F)F)cc4C(F)F)CC3)sc2Cl)=NO1 (stereo not drawn) [I-46]", 3.98],
  ["O=C(NC1CC1)c1ccccc1C1CC(c2csc(C3CCN(C(=O)Cn4nc(C(F)F)cc4C(F)F)CC3)n2)=NO1 (stereo not drawn) [I-27]", 2.64],
  ["CC(C)=CCOc1ccccc1C1CC(c2csc(C3CCN(C(=O)Cn4nc(C(F)F)cc4C(F)F)CC3)n2)=NO1 (stereo not drawn) [I-20]", 4.19],
  ["C=CCOc1ccccc1C1CC(c2csc(C3CCN(C(=O)Cn4nc(C(F)F)cc4C(F)F)CC3)n2)=NO1 (stereo not drawn) [I-14]", 3.63],
  ["CC(=O)c1ccccc1C1CC(c2csc(C3CCN(C(=O)Cn4nc(C(F)F)cc4C(F)F)CC3)n2)=NO1 (stereo not drawn) [I-7]", 3.08],
  ["O=Cc1cccc(F)c1C1CC(c2csc(C3CCN(C(=O)Cn4nc(C(F)F)cc4C(F)F)CC3)n2)=NO1 (stereo not drawn) [I-17]", 2.92],
  ["COCCOc1cccc(Cl)c1C1CC(c2csc(C3CCN(C(=O)Cn4nc(C(F)F)cc4C(F)F)CC3)n2)=NO1 (stereo not drawn) [I-50]", 3.36],
  ["C#Cc1ccccc1C1CC(c2csc(C3CCN(C(=O)Cn4nc(C(F)F)cc4C(F)F)CC3)n2)=NO1 (stereo not drawn) [I-38]", 3.36],
  ["O=C(Cn1nc(C(F)F)cc1C(F)F)N1CCC(c2nc(C3=NOC(c4ccccc4[N+](=O)[O-])C3)cs2)CC1 (stereo not drawn) [I-10]", 3.19],
  ["O=Cc1ccccc1-c1cc(-c2csc(C3CCN(C(=O)Cn4nc(C(F)F)cc4C(F)F)CC3)n2)no1 [I-31]", 3.25],
  ["CCSCc1ccccc1C1CC(c2csc(C3CCN(C(=O)Cn4nc(C(F)F)cc4C(F)F)CC3)n2)=NO1 (stereo not drawn) [I-12]", 3.9],
  ["CS(=O)(=O)Nc1ccccc1C1CC(c2csc(C3CCN(C(=O)Cn4nc(C(F)F)cc4C(F)F)CC3)n2)=NO1 (stereo not drawn) [I-37]", 2.51]
]}
